Recorded peptide exchange yield values for a group of binders are listed next.
Target: T1, HLA-A*02:01 (peptide-receptive MHC class I monomer after UV cleavage of the UV-sensitive ligand) (human)
T1 construct: MHC monomers loaded by UV-ligand exchange and captured on streptavidin plates
Assay: UV ligand-exchange ELISA; exchange yield grade (+ >=10%, ++ >=20%, +++ >=50%, ++++ >=75%)

Examples with answers:
GLTALHVAV [GLTALHVAV (SEQ ID NO: 89)]	50 to 75%
GLDTVVALL [GLDTVVALL (SEQ ID NO: 11)]	50 to 75%
FLYEDSKSVRL [FLYEDSKSVRL (SEQ ID NO: 142)]	50 to 75%
ALLDVSNNYGI [ALLDVSNNYGI (SEQ ID NO: 77)]	≥ 75%

I am curious: what peptide exchange yield value has been reported for LLAGQATTAYF [LLAGQATTAYF (SEQ ID NO: 94)] ?
50 to 75%

I am curious: what peptide exchange yield value has been reported for VILDIPLLFET [VILDIPLLFET (SEQ ID NO: 36)] ?
50 to 75%

I am curious: what peptide exchange yield value has been reported for GLFARIIMI [GLFARIIMI (SEQ ID NO: 87)] ?
20 to 50%

I am curious: what peptide exchange yield value has been reported for LLANIVPIAMLV [LLANIVPIAMLV (SEQ ID NO: 33)] ?
≥ 75%
